Answer each item with its documented kon.
# study_system: T1, soluble mouse BLyS (mouse, UniProt Q9WU72 127-309)
# T1 construct: europium-labelled in DELFIA; also called mBLyS; mouse BAFF (BLyS)
# run_description: Biacore, antibody captured on chip, BLyS injected, 1:1 model, 25 C
Answers are plain numbers, in M⁻¹ s⁻¹.

Consider the following illustrative entries.
• 5B7 IgG1 F243A/V264A double mutein expressed in Pichia pastoris (antibody, V domains shown, IgG1 F243A/V264A (EU) double mutein, alpha-2,6-sialylated, from glycoengineered Pichia pastoris; also called 5B7-DM; 5B7-DM Pichia) VH: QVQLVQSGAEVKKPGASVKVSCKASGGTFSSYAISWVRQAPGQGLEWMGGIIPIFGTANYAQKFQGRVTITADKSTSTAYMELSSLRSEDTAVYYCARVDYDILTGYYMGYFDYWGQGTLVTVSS VL: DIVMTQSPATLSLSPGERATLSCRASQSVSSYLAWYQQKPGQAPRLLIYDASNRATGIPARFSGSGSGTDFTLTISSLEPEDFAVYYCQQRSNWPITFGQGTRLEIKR = 620000
• 8D12 IgG1 F243A/V264A double mutein expressed in Pichia pastoris (antibody, V domains shown, IgG1 F243A/V264A (EU) double mutein, alpha-2,6-sialylated, from glycoengineered Pichia pastoris; also called 8D12-DM; 8D12-DM (Pichia)) VH: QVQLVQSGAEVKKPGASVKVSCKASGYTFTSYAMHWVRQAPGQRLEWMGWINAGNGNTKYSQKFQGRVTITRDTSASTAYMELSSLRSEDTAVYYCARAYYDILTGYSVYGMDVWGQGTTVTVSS VL: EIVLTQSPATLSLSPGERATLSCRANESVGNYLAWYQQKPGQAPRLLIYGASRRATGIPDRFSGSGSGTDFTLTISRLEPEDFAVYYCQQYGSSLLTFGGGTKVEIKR = 580000
• 6C10 IgG1 F243A/V264A double mutein expressed in Pichia pastoris (antibody, V domains shown, IgG1 F243A/V264A (EU) double mutein, alpha-2,6-sialylated, from glycoengineered Pichia pastoris; also called 6C10-DM; 6C10-DM (Pichia)) VH: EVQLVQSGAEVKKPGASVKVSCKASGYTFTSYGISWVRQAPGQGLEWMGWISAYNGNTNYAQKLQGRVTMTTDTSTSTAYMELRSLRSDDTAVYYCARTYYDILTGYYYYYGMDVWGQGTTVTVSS VL: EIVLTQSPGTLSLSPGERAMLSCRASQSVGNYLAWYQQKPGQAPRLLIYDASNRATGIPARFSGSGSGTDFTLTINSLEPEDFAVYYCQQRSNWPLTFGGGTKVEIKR = 330000

Shifting focus to the binder that follows.
# kon of 5B7 IgG expressed in HEK293 cells (antibody, V domains shown, also called 5B7 (293); 5B7-HEK293) VH: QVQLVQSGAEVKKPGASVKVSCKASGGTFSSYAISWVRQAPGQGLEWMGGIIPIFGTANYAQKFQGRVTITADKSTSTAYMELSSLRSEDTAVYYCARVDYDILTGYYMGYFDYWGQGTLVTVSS VL: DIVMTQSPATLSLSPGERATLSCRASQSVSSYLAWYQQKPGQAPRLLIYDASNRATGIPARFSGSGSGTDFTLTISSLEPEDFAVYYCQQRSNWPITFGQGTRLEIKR = 670000
